# System: AncSZ
# TEST: phosphorylation enrichment, bacterial display (enrichment ratio); higher = better substrate or ligand; peptides without Tyr show the background
ASSAY_ENDPOINT: phosphorylation enrichment
// no unit, no text: just the number

Reference set, count: 2
1) PNRILYGDFRQ [MYH6_Y717] :: 0.823
2) GDLTDYLMKIL [ACTA1_Y190_R185G] :: 0.788

Note to self: phosphorylation enrichment recorded for KSEMSYIDGEK [SORBS1_Y485] was 0.899

---

# System: c-Src
# TEST: phosphorylation enrichment, bacterial display (enrichment ratio); higher = better substrate or ligand; peptides without Tyr show the background
Below, each entry is listed alongside its reported phosphorylation enrichment.
Give the figure by itself; no unit, no explanation.

1) GLETSYIEDNC [PAH_Y24_Q20L] :: 0.513
2) NDDDVYLSLEE [VAV2_Y142_R143L] :: 0.804
3) YPSLPYSPVSS [CAMKK2_Y128_C123Y] :: 0.546
4) ADKAAYLQNLN [MYH1_Y389] :: 0.601

Simply: MKGDYYCYLAE [YWHAG_Y131_R132C] , c-Src, phosphorylation enrichment = 2.49

Tested system c-Src; phosphorylation enrichment recorded for FADGVYQALEE [DUOX2_Y70_YF] was 3.81

---

# SUBJECT_OF_TEST: Fyn (UniProt P06241)
# Sequence (P06241 whole entry, looked up): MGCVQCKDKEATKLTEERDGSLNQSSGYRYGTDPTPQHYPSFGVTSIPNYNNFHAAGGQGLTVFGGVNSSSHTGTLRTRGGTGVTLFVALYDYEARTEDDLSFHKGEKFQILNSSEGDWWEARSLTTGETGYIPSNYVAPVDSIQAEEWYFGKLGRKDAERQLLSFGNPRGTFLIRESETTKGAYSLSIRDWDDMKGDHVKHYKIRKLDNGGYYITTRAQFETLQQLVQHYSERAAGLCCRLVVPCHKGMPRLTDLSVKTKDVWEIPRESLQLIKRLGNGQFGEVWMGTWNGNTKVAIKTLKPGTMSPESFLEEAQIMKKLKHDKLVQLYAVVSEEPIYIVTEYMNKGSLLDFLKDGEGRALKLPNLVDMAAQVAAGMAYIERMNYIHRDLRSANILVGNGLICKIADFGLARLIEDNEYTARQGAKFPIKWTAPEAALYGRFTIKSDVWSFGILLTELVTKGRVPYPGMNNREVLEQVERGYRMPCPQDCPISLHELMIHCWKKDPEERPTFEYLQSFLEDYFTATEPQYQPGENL
# TEST: phosphorylation enrichment, bacterial display (enrichment ratio); higher = better substrate or ligand; peptides without Tyr show the background
A collection of sequences and their measured phosphorylation enrichment
Reply with just the number.

get_value(item= FRSSLYSLMET [MYO5C_Y633_L634S] , readout=phosphorylation enrichment) returns 4.25

phosphorylation enrichment in this record for KTGNIYRTEYG [MRPL3_Y265_M261T] : 0.488

Reported phosphorylation enrichment for TCFDKYTGSTF [FN1_Y101_N104S_YF] was 0.408

The reported value for VECQVYAEDPY [PCCA_Y401_R399Q] in terms of phosphorylation enrichment is 0.765

---

# SUBJECT_OF_TEST: Jak2 (UniProt O60674)
# Sequence (O60674 whole entry, looked up): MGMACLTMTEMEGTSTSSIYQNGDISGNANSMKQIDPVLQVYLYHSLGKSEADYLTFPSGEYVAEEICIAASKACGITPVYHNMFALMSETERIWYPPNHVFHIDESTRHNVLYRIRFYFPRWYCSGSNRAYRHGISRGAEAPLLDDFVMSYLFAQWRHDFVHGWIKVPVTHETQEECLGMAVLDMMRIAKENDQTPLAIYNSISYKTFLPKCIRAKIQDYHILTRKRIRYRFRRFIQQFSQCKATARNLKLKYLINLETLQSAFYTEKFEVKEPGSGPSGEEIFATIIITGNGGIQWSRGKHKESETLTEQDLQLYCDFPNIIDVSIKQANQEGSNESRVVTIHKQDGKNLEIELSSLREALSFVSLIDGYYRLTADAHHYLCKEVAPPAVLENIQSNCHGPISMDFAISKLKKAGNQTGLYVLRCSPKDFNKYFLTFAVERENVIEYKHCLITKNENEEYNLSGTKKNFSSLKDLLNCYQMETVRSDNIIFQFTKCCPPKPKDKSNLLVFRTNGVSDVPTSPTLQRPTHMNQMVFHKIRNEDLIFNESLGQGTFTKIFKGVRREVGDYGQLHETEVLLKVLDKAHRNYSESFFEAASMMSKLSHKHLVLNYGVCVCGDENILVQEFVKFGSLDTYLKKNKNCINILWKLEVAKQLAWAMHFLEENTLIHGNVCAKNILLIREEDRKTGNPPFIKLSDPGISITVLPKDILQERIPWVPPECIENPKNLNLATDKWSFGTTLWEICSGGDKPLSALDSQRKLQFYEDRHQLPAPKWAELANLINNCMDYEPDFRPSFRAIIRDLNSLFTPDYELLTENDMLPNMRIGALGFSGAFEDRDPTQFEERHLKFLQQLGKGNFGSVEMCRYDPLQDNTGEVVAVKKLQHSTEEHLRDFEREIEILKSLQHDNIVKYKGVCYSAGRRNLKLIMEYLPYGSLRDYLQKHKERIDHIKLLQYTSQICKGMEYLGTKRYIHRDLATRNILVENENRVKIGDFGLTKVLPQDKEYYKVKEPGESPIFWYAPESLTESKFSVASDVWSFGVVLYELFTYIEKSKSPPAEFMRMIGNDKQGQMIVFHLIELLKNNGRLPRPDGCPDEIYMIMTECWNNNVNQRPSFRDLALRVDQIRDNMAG
# TEST: phosphorylation enrichment, bacterial display (enrichment ratio); higher = better substrate or ligand; peptides without Tyr show the background
Entries and their measured phosphorylation enrichment follow.
// no unit string in output, number only

Some entries whose results are on file:
1. PDSVDYPKKGY [CTSK_Y121_R122P] :: 0.707
2. GSERDYTFEEL [EIF2S2_Y174_YF] :: 1.07
3. IITDYYVDMKF [MPP4_Y567_V562I] :: 2.52
4. KLADVYQAELR [GFAP_Y116] :: 0.549
5. KDAGDYKYKAK [LRIT3_Y326_C328Y] :: 0.519
6. AGQEDDDRLRP [RAC1_Y64_Y64D] :: 1.12
7. AAQNCYKVTNA [TPI1_Y105_G110A] :: 0.552
8. CNPLCYPTIMI [OR6K6_Y160_R159C] :: 0.721
9. SEPDLYFDPRG [PKP1_Y160_C161Y_YF] :: 3.41
10. LAEMNYVHRDL [EPHB1_Y740] :: 1.4

Sample QAPPIYLDVLG [NTRK1_Y791_V790I] , system: Jak2 (UniProt O60674). Its phosphorylation enrichment is 1.21

---

Attribute: SH2 binding enrichment
# SUBJECT_OF_TEST: c-Src SH2
# TEST: SH2 binding enrichment of the phosphorylated peptide, bacterial display (enrichment ratio); higher = better substrate or ligand; peptides without Tyr show the background

Field: example entries. Status: answers known.
1. EEAAGCAQESQ [CAMKV_Y491_Y491C] :: 0.79
2. SDQRRYSLIDR [CLIP2_Y972] :: 3.35
3. IENKPYGMSDP [RET_Y1062_L1061P] :: 0.401

sequence KLSFSYGWALQ [ALDOB_Y302_R304W] , SH2 binding enrichment observed: 0.558

Given item NCLRQYVAGRF [CRB1_Y711_E710Q] , the value recorded as its SH2 binding enrichment is 0.299

The reported value for PSQRRNVFFFS [PTEN_Y174_Y174N_YF] in terms of SH2 binding enrichment is 0.613

// SH2 binding enrichment lookup, sequence = SGVSYYINLCQ [IGF2R_Y2025_N2020S] , result: 0.531

---

phosphorylation enrichment for assorted sequences
# SUBJECT_OF_TEST: Fyn (UniProt P06241)
# TEST: phosphorylation enrichment, bacterial display (enrichment ratio); higher = better substrate or ligand; peptides without Tyr show the background
Lab note: jot down the number only; don't add units.

The following sequences have reported results that may help.
1) AGHEEYSAMRD [KRAS_Y64_Q61H] :: 0.588
2) KNCFKYYMSDD [ATRX_Y203] :: 0.54

Notebook: RLSPEYKQNEI [GJB1_Y243] , phosphorylation enrichment read as 0.403

What the record says about PLRPDYQEPSR [DDR2_Y481] : phosphorylation enrichment is 0.509

Record summary for FTRNYYVQAVL [CYBA_Y88_R90Q] : reported phosphorylation enrichment = 0.486

Short answer for DASAVYLRDFQ [PLCG2_Y242_H244R] : phosphorylation enrichment was 0.562

Reported phosphorylation enrichment ( QCTSAYPLQPE [NANS_Y188] ) = 0.832

phosphorylation enrichment recorded for this sequence, VKANTYENFWP [GATM_Y100_K102N_YF] , is 3.61

---

# SUBJECT_OF_TEST: Jak2 (UniProt O60674)
# TEST: phosphorylation enrichment, bacterial display (enrichment ratio); higher = better substrate or ligand; peptides without Tyr show the background
Examples of sequences with documented phosphorylation enrichment follow.

Record excerpt, results attached:
1. TLERHYKELQA [SPTBN2_Y834_E835K] :: 0.704
2. RKQQLYIAMEE [CCDC39_Y593_T594I] :: 0.7
3. LNPDGYEKAFE [CPXM2_Y427_YF] :: 0.995

Entry VATRWYRSPEL [CDKL5_Y177] ; phosphorylation enrichment = 1

Data point: LKEIHYPPYTD [ALDH3B2_Y362] ; phosphorylation enrichment = 1.01

Noted for KDDEKYLDVIR [MTM1_Y260] : its phosphorylation enrichment reads 0.987

// recorded phosphorylation enrichment for CDKEFYSVHNK [MET_Y1235_Y1230C_YF] : 0.68

// phosphorylation enrichment value for GHLFACDWISI [BEST1_Y227_Y227C_YF] : 0.711

---

# SUBJECT_OF_TEST: c-Src SH2
# TEST: SH2 binding enrichment of the phosphorylated peptide, bacterial display (enrichment ratio); higher = better substrate or ligand; peptides without Tyr show the background
Recorded SH2 binding enrichment for the following sequences
Just the number, please.

Before answering, review these 2 worked examples.
1. PPSGEYFGHCG [TRIP6_Y275_Q278H] :: 0.599
2. EDAHHYLCKEV [JAK2_Y382_A377E] :: 0.603

Memo: LYYYSYLLKNH [PTEN_Y180_V175L] , reported SH2 binding enrichment: 0.666

Lab note: KTGNIYRTEYG [MRPL3_Y265_M261T] gave SH2 binding enrichment of 0.463

# SH2 binding enrichment of AAGGRYDGLLG [HARS2_Y364_V368L] = 0.545

---

# Test system: c-Src
# TEST: phosphorylation enrichment, bacterial display (enrichment ratio); higher = better substrate or ligand; peptides without Tyr show the background
ASSAY_ENDPOINT: phosphorylation enrichment
A bare number is all that is needed in reply.

Field phosphorylation enrichment (entry IRNRDYDDIDD [TTYH2_Y424_T419I] ) reads 0.491

The sequence TSNQEYLFLSM [FGFR1_Y766_D768Y_YF] showed phosphorylation enrichment equal to 0.488

response.value for EDSEFYRAFEE [CASQ2_Y179_K180R_YF] (field: phosphorylation enrichment) = 0.494

Entry CLAQRYLIWEC [SCN5A_Y694_R689C] ; phosphorylation enrichment = 0.505

Measured phosphorylation enrichment of LNPDGYKKAYE [CPXM2_Y427_E428K] : 0.513

Lab book: phosphorylation enrichment of RREWFYEVIIA [BACE1_Y260_V265A_YF] noted as 0.498

---

# System: c-Abl (mouse)
# TEST: phosphorylation enrichment, bacterial display (enrichment ratio); higher = better substrate or ligand; peptides without Tyr show the background
Examples of sequences with documented phosphorylation enrichment follow.

In the examples that follow, each entry is paired with its recorded phosphorylation enrichment.
1) SAPPSHEETVA [LITAF_Y23_Y23H] :: 0.489
2) LKVQVYILGRE [ASS1_Y359_G356V] :: 2.44
3) EPNSRYTCKLE [USH2A_Y3745_Y3747C] :: 0.762
4) IHFAIYLLKYS [ARMC9_Y107] :: 0.753
5) KRYRIYHLAIS [BRCA2_Y3009_T3013I] :: 0.449
6) TLARLYHPDST [LRIG1_Y1029] :: 0.672

Notebook: TFEYRYLEDRD [CNOT3_Y746] , phosphorylation enrichment read as 0.827

IAAEYYDNLPH [DEGS1_Y284] has a reported phosphorylation enrichment of 0.808
